Kindly state melting point for each of the entries shown.

INPUT: Answer with reported melting point of `O=C(O)c1[nH]c2cc(Br)ccc2c1COCc1ccccc1F`
OUTPUT: 174.3 to 178 °C

INPUT: State, in one line, measured melting point of `Cc1ccc(CNC(=O)CCS(=O)(=O)c2ccc3c(c2)CCN3C(=O)C2CC2)cc1`
OUTPUT: 173.4 to 175.3 °C

INPUT: Answer with the recorded melting point for the compound listed here: `O=C(NCc1ccc(F)cc1)c1coc(CN(Cc2ccc3c(c2)OCO3)Cc2ccc3c(c2)OCO3)n1`
OUTPUT: 171.5 to 176.8 °C

INPUT: Assign melting point to the following record: COc1ccc(Nc2ccc3c(COCc4ccccc4F)c(C(=O)O)[nH]c3c2)cc1F [Compound 20a]
OUTPUT: 169.9 to 173.7 °C
